Entries and their pIC50 values follow.
System: M. tuberculosis H37Rv growth inhibition with meropenem
test_protocol: dose response, H37Rv, with and without meropenem (AID 434987);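 note: growth over 7 days at 37 °C before Alamar Blue read on day 9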
experimental_setup: M. tuberculosis H37Rv growth inhibition; measured here: IC50 without meropenem
pIC50: −log10 of the molar value.

These recorded examples may help you get a feel for the data.
{"columns": ["structure_smiles", "recorded_metric", "experimental_result"],
 "data": [
  ["COc1ccc(Cl)cc1NC(=O)C/C(C)=N/NC(=O)CC#N", "pIC50", "< 4.00"],
  ["CCc1ccc2nc(/N=C(\\N)NC(=O)c3ccccc3)nc(C)c2c1", "pIC50", 4.65],
  ["N#Cc1ccc(NC(=O)COC(=O)C2=COCCO2)cc1", "pIC50", "< 4.00"]
]}

Fill in: pIC50 of `O=C(Nc1ccc(Cl)cc1Cl)C1=Cc2ccccc2OC1` is ___ < 4.00

Further, for `O=C(O)CCC/C=C\C[C@@H]1[C@@H](/C=C/[C@@H](O)COc2cccc(Cl)c2)[C@H](O)C[C@@H]1O` ? < 4.00

###

System: M. tuberculosis H37Rv growth inhibition with meropenem
test_protocol: dose response, H37Rv, with and without meropenem (AID 434987);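 note: growth over 7 days at 37 °C before Alamar Blue read on day 9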
experimental_setup: measured here: IC90 with meropenem
recorded_metric: IC90

Return reported IC90; argument: `CC(C)OC(=O)CSc1nc(N2CCOCC2)c2c(c1C#N)CC(C)(C)OC2` > 100 µM

// same read-out, input: `O=c1c(N=Nc2ccc(O)cc2)c(-c2ccccc2)[nH]n1-c1ccc([N+](=O)[O-])cc1` > 100 µM

Same for `C=CCSc1nc2c(c(-c3ccsc3)c1C#N)CN(C)CC2` 55.1 µM

Thanks! And CN=C(Nc1cc(Cl)ccc1Cl)SC1CC(=O)N(c2ccc(C(=O)OC)cc2)C1=O (centres undefined) ? > 100 µM

And what about the compound `O=C(OCC(=O)N1CCN(C(=O)c2ccco2)CC1)c1cc(-c2ccco2)nc2ccccc12` ? > 100 µM

Moving on to `CN1CCN(c2ccc(NC(=O)c3ccc(-c4cccc([N+](=O)[O-])c4)o3)cc2)CC1` 6.71 µM

# repeat for `O=C(CCS(=O)(=O)c1ccc(F)cc1)Nc1nnc(-c2cccs2)o1` > 100 µM

Proceed to `Cc1c(-c2ccccc2)cnc2c(C)cccc12` > 100 µM

Then `O=C(Nc1ccc(C(F)(F)F)cc1)c1cc(-c2cccnc2)nc2ccc(Br)cc12` ? > 100 µM

###

This listing pairs compounds with measured IC90.
Tested on: M. tuberculosis H37Rv growth inhibition with meropenem
test_protocol: dose response, H37Rv, with and without meropenem (AID 434987);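 note: growth over 7 days at 37 °C before Alamar Blue read on day 9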
experimental_setup: measured here: IC90 with meropenem

I have this compound here, `C=CCSc1nnc(-c2cc3c(-c4ccccc4)nn(C)c3s2)n1C` , and I need its recorded IC90. > 100 µM

###

Each record here notes measured IC50.
Test system: M. tuberculosis H37Rv growth inhibition with meropenem
test_protocol: dose response, H37Rv, with and without meropenem (AID 434987);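 note: growth over 7 days at 37 °C before Alamar Blue read on day 9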
experimental_setup: M. tuberculosis H37Rv growth inhibition; measured here: IC50 without meropenem

Recorded IC50, per entry:
{"columns": ["molecule", "IC50"],
 "data": [
  ["CC(C)OCc1c(C(=O)Nc2nccs2)oc2ccccc12", "> 100 µM"],
  ["COc1ccc(Br)cc1/C=N/NC(=O)CNC(=O)/C=C/c1ccccc1", "> 100 µM"],
  ["O=C(Nc1nc(-c2ccc(F)c(F)c2)cs1)c1cnccn1", "> 100 µM"],
  ["COc1ccc(-c2c(-c3ccsc3)oc3ccc(N4CCOCC4)cc23)cc1", "> 100 µM"],
  ["CC(C)C[C@H](NC(=O)c1nc[nH]c1C(=O)N1CCN(C(=O)OC(C)(C)C)CC1)C(=O)OCc1ccccc1", "49.4 µM"],
  ["O=C(OCC(=O)c1c[nH]c2ccccc12)c1cccc([N+](=O)[O-])c1", "> 100 µM"],
  ["O=C(NNC(=O)c1cc(OCC(F)(F)F)ccc1OCC(F)(F)F)c1cccc(C(F)(F)F)c1", "> 100 µM"],
  ["CCOC(=O)c1nc(N2CCN(C(=O)OCC)CC2)c2c3c(sc2n1)CCCC3", "60.6 µM"],
  ["NC(=S)N/N=C/c1cccc(/C=N/NC(N)=S)c1", "> 100 µM"],
  ["O=c1oc(CCCO)cc2ccc(C#Cc3ccsc3)cc12", "> 100 µM"]
]}

Which measured IC50 value corresponds to `Cc1ccc(C)c(NC(=O)c2cc(-c3cccnc3)nc3ccccc23)c1` ? > 100 µM

Another molecule: O=C(COc1ccccc1[N+](=O)[O-])N(Cc1cccc(Br)c1)C1CCS(=O)(=O)C1 (stereo not drawn) > 100 µM

`C=CCSc1nc2c(c(-c3ccsc3)c1C#N)CN(C)CC2` , same question. 65.7 µM

Another molecule to check: `CC(=O)n1cc([C@@H]2C=C(C(=O)N3CCN(Cc4ccc5c(c4)OCO5)CC3)O[C@H](OCCCCO)C2)c2ccccc21` 84 µM

Same question, `O=C1O/C(=C/c2ccccc2)N=C1c1ccccc1` this time 16.9 µM

And then `COc1cccc(/C=N/Nc2nc(N3CCCC3)nc(N3CCCC3)n2)c1O` , what is it? 25.1 µM

Do the same for `Cc1ccc(CNC(=O)c2cn(C)c3ccc(S(=O)(=O)N4CCOCC4)cc3c2=O)cc1` please > 100 µM

Same read-out for `CCCSc1nnc(NC(=O)c2sc3nc(-c4cccs4)ccc3c2N)s1` ? > 100 µM
